All figures here come from patent US20260242478A1.

Biological target: T1, Anti-PSMA Fab (biotinylated (site not stated))
T1 construct: Biotinylated PSMA Fab captured on neutravidin plates in the phage ELISA; also called 006 PSMA Fab
Assay: clonal phage ELISA on captured biotinylated PSMA Fab pre-incubated with PSMA antigen as competitor, anti-M13 HRP detection
So basically, the class depends on measured Phage binding ELISA signal, Anti-PSMA Fab in presence of PSMA antigen, and the ranges are bottom bin: < 0.07; middle bin: ≥ 0.07 and < 0.1; top bin: ≥ 0.1

{"columns": ["binder", "discrete.label"],
 "data": [
  ["YERMCSPEWMCWDF [Phage-3983]", "middle bin"],
  ["EWPICRPSWMCDDF [Phage-3994]", "bottom bin"],
  ["MTDRCKPEWMCFGF [Phage-3989]", "top bin"],
  ["STPYCVPDWMCAGF [Phage-3988]", "middle bin"],
  ["NGPMCVPQWMCDGT [Phage-3986]", "bottom bin"],
  ["IAVKCMPAWMCVGI [Phage-3993]", "middle bin"],
  ["SVMNCVPLRMCEGF [Phage-3991]", "middle bin"],
  ["VENLCRPSWMCEGF [Phage-3985]", "top bin"],
  ["HVQRCVPQWMCVGF [Phage-3987]", "top bin"]
]}
